System: Adult Ctenocephalides felis
Test: Test on cat fleas / oral absorption
Assay type: in vivo
Conditions: 100 ppm in citrated cow's blood, after 24 hours
mortality of fleas: recorded values
measured endpoint: mortality of fleas (%)

INSERT INTO assay_data (compound, tested_system, value_observed) VALUES
  ('CCC(C)C1OC2(C=CC1C)CC1CC(CC=C(C)C(OC3CC(OC)C(OC4CC(OC)C(=CC(=O)O)C(C)O4)C(C)O3)C(C)C=CC=C3COC4C(=NO)C(C)=CC(C(=O)O1)C34O)O2 (centres unmarked)', 'Adult Ctenocephalides felis', 100),
  ('CCC(C)C1OC2(C=CC1C)CC1CC(CC=C(C)C(OC3CC(OC)C(OC4CC(OC)C(=CCO)C(C)O4)C(C)O3)C(C)C=CC=C3COC4C(O)C(C)=CC(C(=O)O1)C34O)O2 (centres unmarked)', 'Adult Ctenocephalides felis', 100),
  ('CCOC(=O)C=C1C(C)OC(OC2C(C)OC(OC3C(C)=CCC4CC(CC5(C=CC(C)C(C(C)CC)O5)O4)OC(=O)C4C=C(C)C(O)C5OCC(=CC=CC3C)C45O)CC2OC)CC1OC (centres unmarked)', 'Adult Ctenocephalides felis', 100),
  ('CCC(C)C1OC2(C=CC1C)CC1CC(CC=C(C)C(OC3CC(OC)C(OC4CC(OC)C(=CC(=O)O)C(C)O4)C(C)O3)C(C)C=CC=C3COC4C(O)C(C)=CC(C(=O)O1)C34O)O2 (centres unmarked)', 'Adult Ctenocephalides felis', 100),
  ('CCC(C)C1OC2(C=CC1C)CC1CC(CC=C(C)C(OC3CC(OC)C(OC4CC(OC)C(=CC(=O)OC)C(C)O4)C(C)O3)C(C)C=CC=C3COC4C(O)C(C)=CC(C(=O)O1)C34O)O2 (centres unmarked)', 'Adult Ctenocephalides felis', 99);
